Values from patent US9956285B2

Assay: MTS assay to determine cytotoxicity
Type: cell-based, human
Settings: HeLa cells; human cells treated for 48 hours; MTS assay, FIG. 1C
Measured Metric: CC50 at 48 h

INSERT INTO assay_data (compound, test_value) VALUES
  ('Cc1nc2c(ccc3nc(NC(=O)c4cccc(Br)c4)sc32)s1 [KIN1000]', '> 20 µM');
